# Measured target: Cytochrome P450 2D6 (Homo sapiens)
# Test summary: Cytochrome panel assay with activity outcomes; note: % is set by controls: 0 for no effect and ±100 for the full control effect
# Details: recombinant CYP, pro-luciferin dealkylation, luminescence, p450-cyp2d6; series mostly up to 57.1 µM
Screen size: about 16,000 compounds; about 2,600 (16%) were called active. Inconclusive results (about 20%) are left out. The list is a sample of the results.
activity, negative = inhibition listing for selected molecules.

Example cases with answers are listed next.
>>> endpoint_result("COc1ccc([C@H](O)c2ccccn2)cc1")
"0.937% [at 11.4 µM] (inactive)"
>>> endpoint_result("CC(C)Cn1cnc2c(SCc3ccccn3)nc(N)nc21")
"6.1% [at 11.4 µM] (inactive)"
>>> endpoint_result("NC(N)=NC(N)=Nc1ccc(S(=O)(=O)O)cc1")
"3.23% [at 11.4 µM] (inactive)"
>>> endpoint_result("CN(C)CCNS(=O)(=O)N(C)C")
"5.07% [at 11.4 µM] (inactive)"
>>> endpoint_result("c1c[nH]c(CN2CCN(Cc3ncc[nH]3)CC2)n1")
"-3.74% [at 11.4 µM] (inactive)"
>>> endpoint_result("O=C(Nc1ccc2c(c1)Cc1ccccc1-2)[C@@H]1[C@H](C(=O)O)[C@]2(Cl)C(Cl)=C(Cl)[C@@]1(Cl)C2(Cl)Cl")
"-10.2% [at 11.4 µM] (inactive)"
>>> endpoint_result("O=C(NNC(=O)c1ccncc1)c1ccncc1")
"-4.63% [at 11.4 µM] (inactive)"
>>> endpoint_result("CC[C@@H](CS(=O)(=O)O)[N+](=O)[O-]")
"2.2% [at 11.4 µM] (inactive)"

# `COc1ccc(O[C@H]2C=C[C@@H](c3ccccc3)O[C@@H]2CON=C(C)C)cc1` with Cytochrome P450 2D6 (Homo sapiens): activity, negative = inhibition is -3.07% [at 11.4 µM] (inactive)

# `Nc1nc2c(c(=O)[nH]1)CN(c1ccc(S(N)(=O)=O)cc1)CN2` with Cytochrome P450 2D6 (Homo sapiens): activity, negative = inhibition is -2.27% [at 11.4 µM] (inactive)

# `C#CCCCO/N=C1/C[C@@H](O)[C@@H](O)[C@@H]2[C@@H]3C(=O)N(C[C@@H]4CCCO4)C(=O)[C@H]3CC[C@@H]12` with Cytochrome P450 2D6 (Homo sapiens): activity, negative = inhibition is 9.44% [at 11.4 µM] (inactive)
